target: Serine/threonine-protein kinase PLK1 (Homo sapiens); assay: Inhibition of PLK1 splice variant in human HeLa cells lysate pre incubated for 15 mins followed by ADP acyl phosphate probe addition and measured after 10 mins by LC-MS/MS analysis; assay type: subcellular
Sequence (P53350 2-603 limits assumed, stated change not applied): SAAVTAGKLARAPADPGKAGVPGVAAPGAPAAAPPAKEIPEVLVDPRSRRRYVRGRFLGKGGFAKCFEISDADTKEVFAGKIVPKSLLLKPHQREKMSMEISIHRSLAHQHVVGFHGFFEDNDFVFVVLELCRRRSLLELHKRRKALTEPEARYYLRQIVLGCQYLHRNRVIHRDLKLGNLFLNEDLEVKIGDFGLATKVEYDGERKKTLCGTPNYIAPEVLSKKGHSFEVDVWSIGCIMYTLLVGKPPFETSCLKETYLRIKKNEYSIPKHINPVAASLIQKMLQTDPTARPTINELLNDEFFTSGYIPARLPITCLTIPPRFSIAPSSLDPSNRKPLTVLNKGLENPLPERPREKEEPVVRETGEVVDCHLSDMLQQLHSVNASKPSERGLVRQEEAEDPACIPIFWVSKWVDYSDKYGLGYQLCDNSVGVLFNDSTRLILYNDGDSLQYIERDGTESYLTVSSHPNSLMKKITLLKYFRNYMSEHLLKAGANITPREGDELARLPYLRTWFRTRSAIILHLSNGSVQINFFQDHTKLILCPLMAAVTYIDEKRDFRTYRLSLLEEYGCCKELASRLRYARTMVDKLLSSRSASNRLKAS
measured property: IC50

Q. // lookup IC50 | system=Serine/threonine-protein kinase PLK1 (Homo sapiens) | key= CCOc1cc(N2CCC(O)CC2)ccc1Nc1ncc2c(n1)N(C)c1ccccc1C(=O)N2C
A. > 50 µM

====

target: Phosphatidylinositol 4-kinase alpha (Homo sapiens, UniProt P42356); test: Inhibition of PIK4CA in human HeLa cells lysate pre incubated for 15 mins followed by ATP acyl phosphate probe addition and measured after 10 mins by LC-MS/MS analysis
Sequence (P42356 whole entry): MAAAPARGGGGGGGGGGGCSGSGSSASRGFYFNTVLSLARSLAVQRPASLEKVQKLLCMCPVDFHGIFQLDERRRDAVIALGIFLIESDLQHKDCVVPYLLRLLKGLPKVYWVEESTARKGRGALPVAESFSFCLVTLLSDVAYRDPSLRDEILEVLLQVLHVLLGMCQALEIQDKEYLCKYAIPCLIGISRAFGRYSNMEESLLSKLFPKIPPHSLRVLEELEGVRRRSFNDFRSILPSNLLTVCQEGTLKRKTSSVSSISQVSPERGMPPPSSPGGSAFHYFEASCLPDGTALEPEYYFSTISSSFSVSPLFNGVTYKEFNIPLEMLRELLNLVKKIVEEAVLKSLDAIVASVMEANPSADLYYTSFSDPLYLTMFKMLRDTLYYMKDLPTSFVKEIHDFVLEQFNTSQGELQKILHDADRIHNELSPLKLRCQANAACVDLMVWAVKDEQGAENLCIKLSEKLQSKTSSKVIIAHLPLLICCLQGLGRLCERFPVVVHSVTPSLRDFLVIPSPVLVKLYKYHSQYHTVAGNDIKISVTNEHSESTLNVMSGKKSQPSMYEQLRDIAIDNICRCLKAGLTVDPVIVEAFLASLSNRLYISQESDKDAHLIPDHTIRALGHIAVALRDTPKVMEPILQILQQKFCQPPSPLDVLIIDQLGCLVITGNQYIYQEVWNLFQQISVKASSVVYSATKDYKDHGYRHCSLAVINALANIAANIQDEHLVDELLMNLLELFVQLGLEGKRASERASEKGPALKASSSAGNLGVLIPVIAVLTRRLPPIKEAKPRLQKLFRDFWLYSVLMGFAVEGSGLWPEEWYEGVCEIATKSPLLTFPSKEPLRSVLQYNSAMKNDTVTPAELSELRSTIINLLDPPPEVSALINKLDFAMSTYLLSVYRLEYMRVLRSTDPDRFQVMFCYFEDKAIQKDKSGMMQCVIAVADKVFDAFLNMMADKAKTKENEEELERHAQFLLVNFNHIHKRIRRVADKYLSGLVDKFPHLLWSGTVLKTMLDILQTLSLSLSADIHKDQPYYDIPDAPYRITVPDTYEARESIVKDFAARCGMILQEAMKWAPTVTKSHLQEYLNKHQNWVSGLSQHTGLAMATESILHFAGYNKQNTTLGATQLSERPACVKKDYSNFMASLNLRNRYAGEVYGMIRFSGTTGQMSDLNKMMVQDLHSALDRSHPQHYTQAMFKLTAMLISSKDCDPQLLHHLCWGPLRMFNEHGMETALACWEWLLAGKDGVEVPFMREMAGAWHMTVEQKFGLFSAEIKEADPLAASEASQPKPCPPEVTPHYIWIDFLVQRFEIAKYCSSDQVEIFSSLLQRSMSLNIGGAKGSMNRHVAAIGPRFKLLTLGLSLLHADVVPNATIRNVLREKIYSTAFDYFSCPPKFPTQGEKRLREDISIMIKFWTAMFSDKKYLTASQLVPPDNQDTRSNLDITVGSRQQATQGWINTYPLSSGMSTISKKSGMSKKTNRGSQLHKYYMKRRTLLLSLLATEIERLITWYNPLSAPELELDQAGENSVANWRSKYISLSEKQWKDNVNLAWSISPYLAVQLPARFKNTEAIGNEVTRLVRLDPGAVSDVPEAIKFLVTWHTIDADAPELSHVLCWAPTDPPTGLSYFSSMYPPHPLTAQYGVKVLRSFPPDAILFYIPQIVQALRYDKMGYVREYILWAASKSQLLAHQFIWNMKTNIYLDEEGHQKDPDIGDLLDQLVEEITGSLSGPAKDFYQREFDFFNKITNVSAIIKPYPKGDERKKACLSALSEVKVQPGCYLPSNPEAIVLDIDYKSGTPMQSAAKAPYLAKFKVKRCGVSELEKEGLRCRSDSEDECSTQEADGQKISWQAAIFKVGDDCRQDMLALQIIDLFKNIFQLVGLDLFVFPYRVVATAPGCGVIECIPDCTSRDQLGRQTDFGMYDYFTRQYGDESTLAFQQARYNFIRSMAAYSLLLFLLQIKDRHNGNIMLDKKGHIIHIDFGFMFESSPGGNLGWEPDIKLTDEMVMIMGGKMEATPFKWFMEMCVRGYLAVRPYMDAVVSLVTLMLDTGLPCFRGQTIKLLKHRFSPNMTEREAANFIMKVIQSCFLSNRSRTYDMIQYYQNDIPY
measured property: pIC50
Here pIC50 is given on a logarithmic scale as minus log10 of the concentration in mol/L.

Q. // lookup pIC50 | system=Phosphatidylinositol 4-kinase alpha (Homo sapiens, UniProt P42356) | key= CCOc1cc(N2CCC(O)CC2)ccc1Nc1ncc2c(n1)N(C)c1ccccc1C(=O)N2C
A. 4.44
